The measurements presented in this section are drawn from patent US20200079844A1.

target: T1, human TNFα (human, UniProt P01375 77-233)
T1 construct: Biotinylated in the ELISAs, amine-coupled to CM5 in Biacore; also called human TNF-alpha; hTNF-alpha
T1 sequence (P01375 77-233 limits assumed): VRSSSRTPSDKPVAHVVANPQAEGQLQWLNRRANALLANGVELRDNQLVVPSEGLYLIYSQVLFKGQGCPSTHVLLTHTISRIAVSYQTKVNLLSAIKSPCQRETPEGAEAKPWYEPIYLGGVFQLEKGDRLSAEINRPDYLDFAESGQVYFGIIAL
endpoint: koff (s⁻¹)

[[record]]
binder = "PMP1H6 (VHH, Tested as unpurified protein) VHH: EVQLVESGGGLVQPGGSLRLSCATSGFDFSVSWMYWVRQAPGKGLEWVSEINTNGLITKYVDSVKGRFTISRDNAKNTLYLQMDSLIPEDTALYYCARSPSGSFRGQGTQVTVSS"
unit_label = "s⁻¹"
numeric_result = 0.00214

[[record]]
binder = "PMP1G11 (VHH, Tested as unpurified protein) VHH: QVQLQESGGGMVQPGGSLRLSCAASGFDFGVSWMYWVRQAPGKGLEWVSEINTNGLITKYPDSVKGRFTISRDNAKTTLYLQMNSLKPEDTALYYCARSPSGSFRGQGTQVTVSS"
unit_label = "s⁻¹"
numeric_result = 0.00115

